B1: Azoarcus group I ribozyme (parent)
chain: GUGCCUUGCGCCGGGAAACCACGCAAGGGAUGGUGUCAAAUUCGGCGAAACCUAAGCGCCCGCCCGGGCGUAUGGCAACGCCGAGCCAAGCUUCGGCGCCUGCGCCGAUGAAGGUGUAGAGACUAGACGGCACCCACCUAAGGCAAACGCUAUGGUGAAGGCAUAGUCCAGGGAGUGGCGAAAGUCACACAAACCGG

Variants of: B1
Experiment: reverse-splicing fitness (ratio to wild type); higher = more active; in vitro selection; Mg2+ level not given
Each record here notes measured reverse-splicing fitness.
In your answer, state the number alone without any accompanying words.

| mutant.designation | reverse-splicing fitness |
| --- | --- |
| C82U A111G A120U A145U U176A | 0.00945 |
| C82U A111U A120U A145C C150A C169A U176C | 0.00217 |
| C82U A111C A145G C150A C169U U176A | 0.0144 |
| C82U A111C A120C A145C C150G C169U U176A | 0.0102 |

Incoming: Provide measured reverse-splicing fitness value, entry: A111G A145G C150G U176C
Outgoing: 0.184

Incoming: // Input: C82A A120C A145G U176C . Output its reverse-splicing fitness only.
Outgoing: 0.0683

Incoming: Hello, please tell me recorded reverse-splicing fitness for this one: A111U A120U A145G C150A C169G U176G
Outgoing: 0.00267

Incoming: Output reverse-splicing fitness of A120C A145G C150A
Outgoing: 0.32

Reference for the values: the RNAGym collection of RNA variant scans (doi:10.1093/molbev/msab373)
